# Tested on: Encephalomyocarditis virus (EMCV)
# test: Antiviral activity assay (0.1–1000 µM), IC50
# Assay type: cell-based
# condition-details: Cardiovirus A, MOI 0.005, read-out: IC50 EMCV

{"compound": "Cc1c(C)[n+](OCc2ccccc2)cn1Cc1ccc(C(F)(F)F)cc1.[Br-] [Compound 8d]", "IC50": "> 283 µM"}
{"compound": "FC(F)(F)c1cccc(C[n+]2cn(Cc3ccccc3)c(-c3ccccc3)c2-c2ccccc2)c1.[Br-] [Compound 9a]", "IC50": "> 3.75 µM"}
{"compound": "Cc1c(C)[n+](Cc2cccc(C(F)(F)F)c2)cn1Cc1ccccc1.[Cl-] [Compound 1g]", "IC50": "> 30 µM"}
{"compound": "Cc1c(C)[n+](OCc2ccccc2)cn1Cc1cccc(F)c1.[Br-] [Compound 8a]", "IC50": "> 257 µM"}
{"compound": "Cc1c(C)[n+](OCc2ccccc2)cn1Cc1cccc(OC(F)(F)F)c1.[Br-] [Compound 8b]", "IC50": "> 90.7 µM"}
{"compound": "Cc1c(C)[n+](Cc2cccc(F)c2)cn1Cc1ccccc1.[Cl-] [Compound 1e]", "IC50": "> 79.2 µM"}
{"compound": "Cc1c(C)[n+](Cc2ccccc2)cn1Cc1cccc(F)c1 [1e[PF6]]", "IC50": "> 148 µM"}
{"compound": "Cc1c(C)[n+](OCc2ccccc2)cn1Cc1ccccc1C(F)(F)F.[Br-] [Compound 8c]", "IC50": "> 28.5 µM"}
{"compound": "Cc1c(C)[n+](Cc2cccc(OC(F)(F)F)c2)cn1Cc1ccccc1.[Cl-] [Compound 1f]", "IC50": "> 48.3 µM"}

----------
Each record here notes measured viability at 10 µM.
# Tested on: Human adenovirus 5 (AdV5)
# test: Antiviral screening at 10 µM
# Format: cell-based
# condition-details: Human mastadenovirus C, AdV5-infected cells, read-out: Cell line (viability %) AdV5

{"compound": "COc1cccc(Cn2c(C)c(C)n(Cc3ccccc3)c2=S)c1 [Compound 10b]", "viability at 10 µM, %": 39.5}
{"compound": "c1c[n+](OC23CC4CC(CC(C4)C2)C3)cn1OC12CC3CC(CC(C3)C1)C2 [Compound 2b]", "viability at 10 µM, %": 17.1}
{"compound": "COc1cccc(Cn2c[n+](Cc3ccccc3)c(C)c2C)c1 [Compound 1c, lepidiline C, reference compound]", "viability at 10 µM, %": 17.9}
{"compound": "c1c[n+](C23CC4CC(CC(C4)C2)C3)cn1C12CC3CC(CC(C3)C1)C2 [Compound 2a, 1,3-diadamantyl imidazolium bromide, reference compound]", "viability at 10 µM, %": 50.2}
{"compound": "COc1cccc(Cn2c(-c3ccccc3)c(-c3ccccc3)n(Cc3ccccc3)c2=S)c1 [Compound 10d]", "viability at 10 µM, %": 68}
{"compound": "S=c1n(Cc2ccccc2)c(-c2ccccc2)c(-c2ccccc2)n1Cc1ccccc1 [Compound 10c]", "viability at 10 µM, %": 16}
{"compound": "Cc1c(C)n(Cc2ccccc2)c(=S)n1Cc1ccccc1 [Compound 10a]", "viability at 10 µM, %": 62}
{"compound": "COc1cccc(Cn2c[n+](Cc3ccccc3)c(-c3ccccc3)c2-c2ccccc2)c1 [9c[PF6]]", "viability at 10 µM, %": 14.4}
{"compound": "c1ccc(Cn2c[n+](Cc3ccccc3)c(-c3ccccc3)c2-c2ccccc2)cc1 [9b[PF6]]", "viability at 10 µM, %": 13.9}
